Test system: HCC827 (K-Ras wild type cell line)
assayExplanation: Viability assay (CellTiterBlue, 72 hr) HCC827
Assay type: cell-based
details: Homo sapiens, GI50, CellTiterBlue, HCC827 K-Ras wild-type
Method: Viability assays were performed on exemplary compounds and Table 2 below lists exemplary results for selected compounds tested on K-Ras wild type cell lines (Ishikawa, U87-MG, HCC827, and A375) and various K-Ras mutant cell lines (Panc1-G12D; Panc10.05-G12D; HCT116-G31D). […] Cells are counted and seeded at 1000 cells/36 ul medium/well into 384-well microplates. […] After 3 hr, fluorescence (Ex550/Em590) is determined on the Victor Plate Reader (Perkin Elmer). […]
assayEndpoint: IC50

Query block: Find the measured IC50: item Cc1nn(C(C)(C)C)c(C)c1C(=O)Nc1nc(-c2ccc3c(c2)CCC(=O)N3)cs1 , target or system HCC827 (K-Ras wild type cell line).
Result block: > 25 µM

Query block: Find the measured IC50: item Cc1nc(C2CCOC2O)sc1C(=O)Nc1nc(-c2ccc3c(c2)CCC(=O)N3Cc2cccnc2)cs1 (stereo not shown) , target or system HCC827 (K-Ras wild type cell line).
Result block: 7 µM

Query block: Find the measured IC50: item Cn1nc(-c2ccccc2)cc1C(=O)Nc1nc(-c2ccc3c(c2)CCC(=O)N3)cs1 , target or system HCC827 (K-Ras wild type cell line).
Result block: > 25 µM

Query block: Find the measured IC50: item CC(C)c1cc(C(=O)Nc2nc(-c3ccc4c(c3)CCC(=O)N4)cs2)n(C)n1 , target or system HCC827 (K-Ras wild type cell line).
Result block: > 25 µM
